Reported SPOT peptide array binding signal intensity values follow for various binders
EXPERIMENTAL_SYSTEM: ScSla1-D3
ASSAY_REMARKS: SPOT peptide array binding signal intensity (averaged, normalized) (arbitrary units (background-subtracted, floor 0; scale differs between SH3 domains)); higher = stronger binding of the SH3 domain to the peptide
// keep it numeric: no unit symbol after the value

Consider the following illustrative entries.
WTQRRGPLVVYAEDN = 9
SSTPTTPERPKRKSG = 15
SRYRRPLTLLLLKPF = 8

API: the following record is the query input.
Query :: Read the entry NIKVLLNPKLGKPVK and write its reported SPOT peptide array binding signal intensity.
Result :: 7.75
